biological target: Mannose-6-phosphate isomerase (Homo sapiens) (UniProt P34949); assay: inhibitors of human PMI, primary screen, biochemical, fluorescence intensity, coupled assay (AID 1209); details: purified PMI enzyme, at 20 µM, stronger effect = higher value;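 further: plate controls were DMSO vehicle for no effect and wells lacking substrate for full effect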
Sequence (P34949 whole entry, looked up): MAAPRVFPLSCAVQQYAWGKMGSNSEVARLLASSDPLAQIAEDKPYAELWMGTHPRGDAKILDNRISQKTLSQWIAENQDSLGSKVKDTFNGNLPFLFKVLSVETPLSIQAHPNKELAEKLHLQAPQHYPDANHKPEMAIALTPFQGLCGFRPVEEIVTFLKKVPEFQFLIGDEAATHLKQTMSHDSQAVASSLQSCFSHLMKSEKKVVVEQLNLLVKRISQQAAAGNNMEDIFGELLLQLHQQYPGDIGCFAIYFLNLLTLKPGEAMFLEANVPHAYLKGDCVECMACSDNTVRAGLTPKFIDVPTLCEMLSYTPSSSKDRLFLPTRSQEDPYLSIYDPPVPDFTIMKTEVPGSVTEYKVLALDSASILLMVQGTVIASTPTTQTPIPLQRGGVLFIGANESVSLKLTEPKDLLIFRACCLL
Screen size: about 190,000 compounds; about 810 (0.43%) were called active. What follows is part of a selection rich in actives, with near analogues and random picks from the rest.
REPORTED_ENDPOINT: inhibition (%)
The figure you give is taken to be in %; do not add the unit.

As a guide, the following entries are already answered.
QUERY: Report inhibition for CC(C)(C)c1ccccc1OCCCCCn1ccnc1
RESULT: 14

QUERY: Look up inhibition of Cc1cc([N+](=O)[O-])nn1CCCC(=O)NCc1ccc(F)cc1 and report it.
RESULT: -9.8

QUERY: Provide only the value of recorded inhibition for CC1=NN(c2ccccc2)C(=O)/C1=C/C=C/c1ccc(N(C)C)cc1
RESULT: 14.6

QUERY: Give the value of inhibition reported for the following: O=c1[nH]c(-c2ccccn2)nc2ccccc12
RESULT: 19.5

Please turn your attention to the following entry.
QUERY: Please indicate inhibition recorded for CN1C(=O)/C(=C/c2ccc(-c3ccccc3[N+](=O)[O-])o2)SC1=Nc1ccc(Cl)c(C(=O)O)c1
RESULT: 3

---

target: Mannose-6-phosphate isomerase (Homo sapiens); experiment: inhibitors of human PMI, primary screen, biochemical, fluorescence intensity, coupled assay (AID 1209); settings: purified PMI enzyme, at 20 µM, stronger effect = higher value;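 further: plate controls were DMSO vehicle for no effect and wells lacking substrate for full effect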
Out of some 190,000 compounds screened, about 810 (0.43%) were called active. Many of the other results were omitted from the sample, so actives are more common in it than they were.
Outcome: Satisfied for inhibition of at least 10%; Not satisfied for anything lower.

As a guide, the following entries are already answered.
QUERY: Textbook exercise: given the entry COc1ccc(-c2nc(CN3CCC(c4ccccc4)CC3)c(C)o2)cc1OC , state whether its inhibition is greater than or equal to 10%.
RESULT: Satisfied

QUERY: hey, is inhibition for this one >= 10%? Cc1cc(N2CCOCC2)nc2ccc(NC(=S)N3CCCCC3C)cc12 (configuration not stated)
RESULT: Satisfied

New cases:
QUERY: Is inhibition at least 10%? Consider CN(Cc1ccncn1)C(=O)CC1C(=O)NCCN1Cc1cccc(Oc2ccccc2)c1 (configuration not stated)
RESULT: Not satisfied

QUERY: Hello, I need to know if Cc1cc(SCC(=O)N/N=C/c2ccc(O)cc2O)c(C)cc1Br has measured inhibition not below 10%. Thanks!
RESULT: Not satisfied

QUERY: Identify whether the reported inhibition of the following compound is 10% or greater: Cc1cc(SCC(=O)N/N=C/c2ccc(O)c(O)c2)c(C)cc1Br
RESULT: Satisfied

QUERY: Does CNCc1ccccc1Sc1cc(O)ccc1O have a reported inhibition of at least 10%?
RESULT: Satisfied

QUERY: # check: inhibition of CC(=O)n1cc(Nc2ccc([N+](=O)[O-])cc2)c2ccccc21 is greater than or equal to 10%
RESULT: Not satisfied

---

molecular target: Mannose-6-phosphate isomerase (Homo sapiens); assay: inhibitors of human PMI, primary screen, biochemical, fluorescence intensity, coupled assay (AID 1209); settings: purified PMI enzyme, at 20 µM;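 further: plate controls were DMSO vehicle for no effect and wells lacking substrate for full effect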
Hit rate of the full screen: of about 190,000 compounds, about 810 (0.43%) were called active. No stated cut-off is given here; in the data, active means inhibition above about 50%; inactive means the rest. Shown is part of a subset that was picked to be rich in actives.
Field 'call' accepts yes (1) for active, no (0) for inactive

QUERY: Tell me the recorded outcome of this test for COc1ccc(N(CC(=O)N/N=C/c2ccc(-c3ccc([N+](=O)[O-])cc3)o2)S(=O)(=O)c2ccc(C)cc2)cc1 .
RESULT: no (0)

Next:
QUERY: What outcome does the record of this test show for CCOC(=O)C1CCN(S(=O)(=O)Cc2ccccc2)CC1 ?
RESULT: no (0)

QUERY: // param item: COc1cc(CNc2ccc(N3CCCC3)cc2)ccc1OCc1ccccc1F ; yields the recorded call
RESULT: no (0)

QUERY: Hey, what did the test say about COc1cc(CNc2ccc(N3CCCC3)cc2)cc(Cl)c1OC ?
RESULT: yes (1)

QUERY: Just curious, what result did CCOc1cc(CNc2ccc(S(N)(=O)=O)cc2)cc(Cl)c1OC get here?
RESULT: no (0)

QUERY: Please state the recorded outcome for this molecule: O=C(COC(=O)c1cccc(Cl)c1)NCCN1C(=O)CSC1=O
RESULT: no (0)

QUERY: # fetch the recorded call for Cc1ccc(C)c(N(CC(=O)N/N=C/c2ccc(-c3ccc([N+](=O)[O-])cc3)o2)S(=O)(=O)c2ccccc2)c1 here
RESULT: no (0)

QUERY: Query: recorded result category for CCOC(=O)N1CCN(S(=O)(=O)Cc2ccccc2)CC1 in this test
RESULT: yes (1)

QUERY: Per the assay record, what outcome was assigned to CCN1CCN(S(=O)(=O)Cc2ccccc2)CC1 ?
RESULT: no (0)

QUERY: Write down the call the test reported for this molecule. Item: CCOc1cc(CNc2ccc(N3CCOCC3)cc2)cc(Br)c1OCC
RESULT: no (0)
